FYI, the data here is from PubChem BioAssay (NCI).

For each entry below, report its growth value.
Tested on: NCI-H460 lung
TEST_NAME: NCI-60 one-dose screen, 48 h (100 = growth as untreated, 0 = no growth, -100 = all killed)
CONDITION_DESCRIPTION: 10 µM unless noted
This is part of a sample that, as a whole, favours compounds with a hit. Of some 83,000 tested, about 20% had one in any assay.
Numbers only, in %.

Please state, for each entry, its recorded growth.
1. O=C(NC1C(O)OC(CO)C(O)C1O)NS(=O)(=O)c1ccc(Cl)cc1 (stereo not given)
2. O=C(c1ccccc1)N(C(=S)NCCc1ccc(Cl)cc1)c1ccccc1
3. O=C1c2cc(Cl)ccc2Oc2cc([N+](=O)[O-])ccc2N1c1ccc(F)cc1F
4. COc1ccccc1CNC(=O)C1c2ccccc2C(=O)N(CC(C)C)C1c1cccs1 (stereo not given)
5. COc1ccc(C2=NN(/C=C3\SC(=O)NC3=Nc3ccc(F)cc3)C(c3ccc(F)cc3)C2)cc1 (stereo not given)

[104, 107, 93.2, 55.6, 101]

###

Test system: ACHN renal
TEST_NAME: NCI-60 one-dose screen, 48 h
CONDITION_DESCRIPTION: 10 µM unless noted
About 83,000 compounds went through this panel and 20% of them were active in at least one assay; those are over-represented in the sample as a whole. Activity calls are given as the source filed them. How the source made its calls: active means growth percent below 10; inactive means the rest.
Tick one outcome: active, inactive

MOLECULE | TARGET_UNDER_TEST | CLASS_NAME
COc1ccc(C2=C(c3cccc(OC)c3)C(=O)c3ccc(C)nc3C2=O)cc1 | ACHN renal | inactive
O=C(NCc1ccco1)C1CN(c2ccc(Cl)cc2)N(c2ccc(Cl)cc2)C1=O (stereo not given) | ACHN renal | inactive
O=c1oc2ccc(Cl)cc2c(=O)n1-c1ccc(Cl)cc1F | ACHN renal | active
O=C(Nc1nc2c(s1)CCc1c-2c(Br)n(Cc2ccccc2)c1Br)c1ccccc1 | ACHN renal | inactive

Returns: the outcome recorded for Cc1nc2ccccc2c(/C=C/c2ccccc2)c1C(=O)/C=C/c1ccc(Cl)cc1 in this assay. inactive

Returns: the outcome recorded for CCOC(=O)c1cc2c(n1Cc1cc(OC)cc(OC)c1)-c1oncc1CCC2 in this assay. inactive

Returns: the outcome recorded for CC(=O)Nc1nc2c(s1)CCc1c-2cn(S(=O)(=O)c2ccccc2)c1-c1ccccc1 in this assay. inactive

Returns: the outcome recorded for COc1ccc2sc(N(Cc3cccnc3)C(=O)c3ccc(C#N)cc3)nc2c1 in this assay. inactive

Returns: the outcome recorded for CCCCCCCCCCOC(=O)c1ccccc1C(=O)OCCCC in this assay. inactive

Returns: the outcome recorded for COc1ccc(-c2cn[nH]c2-c2ccc(OC)c(O)c2)cc1 in this assay. inactive

###

Test system: HOP-62 NSCLC
TEST_NAME: NCI-60 one-dose screen, 48 h
CONDITION_DESCRIPTION: 10 µM unless noted
Method: Growth inhibition of the HOP-62 human Non-Small Cell Lung tumor cell line is measured as a screen for anti-cancer activity. Cells are grown in 96 well plates and exposed to the test compound for 48 hours. Compounds are tested at a single concentration, which is 10^-5 M for most compounds. The reported endpoint is percent growth (GI% or GIPRCNT), where numbers from 0 - 100% represent growth inhibition, and numbers from -100% - 0 represent cell death. […]
The panel holds about 83,000 compounds, 20% with a hit somewhere; the sample as a whole holds those more often. Active and inactive are the calls of the source. The calls were made as follows: active = growth percent below 10; inactive = the rest.
Tick one outcome: 1 = active, 0 = inactive

Previously resolved entries follow.
COMPOUND | TARGET_UNDER_TEST | CLASS_NAME
CS(=O)(=O)Nc1ccc(C(=O)NC(C(=O)NO)c2ccc(-c3cccc(F)c3)cc2)cc1 (centres undefined) | HOP-62 NSCLC | 0
CC(=O)c1ccc(Nc2nc(NCCO)nc(Nc3ccc(Cl)cc3)n2)cc1 | HOP-62 NSCLC | 0
COc1ccc(/C=C/C(=O)c2ccc3cc(OC)c(OC)cc3c2)cc1OC | HOP-62 NSCLC | 0
CN(C)CCCNCc1ccc(-c2ccc(F)c(Cl)c2)o1 | HOP-62 NSCLC | 0
CC(=O)O[C@@H]1/C=C/C(=O)N[C@@H](C)CCC/C=C/[C@@H]2CCC[C@H]21 | HOP-62 NSCLC | 0

Returns: the outcome recorded for O=C(/C=C/c1ccccn1)c1ccc(OCc2nnc(-c3ccc(Cl)cc3)o2)cc1 in this assay. 0

Returns: the outcome recorded for O=c1cc(-c2ccccc2)oc2cc(OCc3cn(Cc4ccc(F)cc4)nn3)cc(OCc3cn(Cc4ccc(F)cc4)nn3)c12 in this assay. 0

Returns: the outcome recorded for CCOC(=O)C1(Cc2ccccc2)CCN(Cc2cccc(OC)c2O)CC1 in this assay. 0

Returns: the outcome recorded for COc1cc(/C=C2\CN(S(=O)(=O)c3ccccc3)C/C(=C\c3cc(CN4CCCC4)c(O)c(OC)c3)C2=O)cc(CN2CCCC2)c1O in this assay. 1
